system: SF-268 CNS; assay: NCI-60 one-dose screen, 48 h (100 = growth as untreated, 0 = no growth, -100 = all killed); conditions: 10 µM unless noted
This is part of a sample that, as a whole, favours compounds with a hit. Of some 83,000 tested, about 20% had one in any assay. The source made the active and inactive calls. The calls were made as follows: active = growth percent below 10; inactive = the rest.
PROPERTY: growth

### Prompt Field request: growth | item: `C=CCn1c(C)nc2cc(Nc3nc(N4CCCC4)nc4ccccc34)ccc21`
### Response 86.9% (inactive)

### Prompt Field request: growth | item: `COC(=O)[C@]12CC[C@@H](C)[C@H](C)[C@@H]1C1=CC[C@@H]3[C@@]4(C)C(C=O)=C[C@@](C)(COC(=O)/C=C/c5ccccc5)[C@@H]4[C@H](O)C[C@@]3(C)[C@]1(C)CC2`
### Response 14.7% (inactive)

### Prompt Field request: growth | item: `CCc1ccccc1-n1c(-c2ccc(Cl)cc2)cc(-c2ccc(OC)cc2)c(C#N)c1=O`
### Response 93.4% (inactive)

### Prompt Field request: growth | item: `CC(=O)[C@@H]1CC[C@]2(COS(=O)(=O)c3ccc(C)cc3)CC[C@]3(C)[C@H](CC[C@@H]4[C@@]5(C)CCCNC(C)(C)[C@@H]5CC[C@]43C)[C@@H]12`
### Response 73.2% (inactive)

### Prompt Field request: growth | item: `COc1nc2c(c(=O)n1C)CN(c1ccccc1)C(=O)CN2C`
### Response 63.4% [100 µM] (inactive)

### Prompt Field request: growth | item: `CN(C)c1ccc(-c2cc(-c3ccc(Nc4nc(Nc5ccc(Cl)cc5)nc(Nc5ccc(Cl)cc5)n4)cc3)no2)cc1`
### Response 45% (inactive)

### Prompt Field request: growth | item: `Cn1c(-c2c(N)n(Cc3ccc(C(F)(F)F)cc3)c3nc(C#N)c(C#N)nc23)nc2ccccc21`
### Response 43.3% (inactive)

### Prompt Field request: growth | item: `Cn1c(-c2c(N)n(Cc3cccnc3)c3nc(C#N)c(C#N)nc23)nc2ccccc21`
### Response 98.8% (inactive)

### Prompt Field request: growth | item: `O=c1cc(-c2ccc(Cl)cc2)[nH]c2ccccc12`
### Response 86.1% (inactive)

### Prompt Field request: growth | item: `Cn1c(I)c(C#C[Si](C)(C)C)c(=O)n(C(=O)c2ccccc2)c1=O`
### Response -18% (active)

### Prompt Field request: growth | item: `COc1cccc(-c2nn(-c3ccccc3)cc2-c2ccnc(NCCNC(=O)Nc3ccc(Cl)c(Cl)c3)c2)c1`
### Response 9.11% (active)

### Prompt Field request: growth | item: `Cn1c(=O)c2[nH]c(NN)nc2n(C)c1=O`
### Response 108% (inactive)

### Prompt Field request: growth | item: `CCc1ccccc1-n1c(N)c(C#N)c(-c2ccc(N(C)C)cc2)c(C#N)c1=O`
### Response 95.6% (inactive)

### Prompt Field request: growth | item: `COc1cc(/C=N/n2c(CN3CCOCC3)nc3ccccc3c2=O)cc(OC)c1OC`
### Response 98.1% (inactive)

### Prompt Field request: growth | item: `N=C1CCC(=N)c2c1c(O)c1ccccc1c2O`
### Response 85.4% (inactive)

### Prompt Field request: growth | item: `Cc1cc(=O)oc2c1ccc1oc(C#N)c(C)c12`
### Response 99.9% (inactive)

### Prompt Field request: growth | item: `N#Cc1c(-c2cccc(Cl)c2)cc(-c2cccc(Cl)c2)[nH]c1=O`
### Response 83.4% (inactive)

### Prompt Field request: growth | item: `c1cc2ccc3cc2cc1CNCCOCCNCc1ccc2ccc(cc2c1)CNCCOCCNC3`
### Response -55.5% (active)

### Prompt Field request: growth | item: `CNS(=O)(=O)c1n[nH]nc1-c1cc(C(C)(C)C)c(O)c(C(C)(C)C)c1`
### Response 99.3% (inactive)

### Prompt Field request: growth | item: `CCN1CCN(c2nc(C)cc(NCc3cc(Nc4ccnc5cc(Cl)ccc45)ccc3F)n2)CC1`
### Response 16.6% (inactive)

### Prompt Field request: growth | item: `COc1ccc(/C=C/c2c(C(=O)/C=C/c3ccc(F)cc3)c(C)nc3ccccc23)cc1`
### Response 69.3% (inactive)

### Prompt Field request: growth | item: `O=C(N=c1oc2ccccc2cc1-c1cc2ccccc2[nH]1)c1ccc(Cl)cc1`
### Response 35.5% (inactive)

### Prompt Field request: growth | item: CCN1C(=O)N(CC)C2Nn3c(s/c(=C4\C(=O)N(C)c5ccccc54)c3=O)=NC21 (stereo unspecified)
### Response 55.5% (inactive)

### Prompt Field request: growth | item: `COc1ccc(-c2nc(SC(C)C)nc(NNC(N)=S)c2C#N)cc1`
### Response 62.5% (inactive)

### Prompt Field request: growth | item: `C[C@H]1[C@H]2[C@H]3CC[C@@H]4[C@@]5(C)C/C(=C/c6ccco6)C(=O)C(C)(C)[C@@H]5CC[C@@]4(C)[C@]3(C)CC[C@]23CO[C@]1(C)[C@@H](C(=O)/C=C\c1ccco1)C3`
### Response 97.3% (inactive)

### Prompt Field request: growth | item: `NC(=O)c1ccc[n+](Cc2ccc(Cl)cc2Cl)c1`
### Response 103% (inactive)

### Prompt Field request: growth | item: `CCCCCCCCCCCCCCCCCCOc1ccc(CC(=O)OCC[N+]2(C)CCCC2)cc1`
### Response 104% (inactive)

### Prompt Field request: growth | item: `O=C(Nc1ccc(Cl)cc1)Nc1ccc(Cl)c(C(F)(F)F)c1`
### Response 21.3% (inactive)

### Prompt Field request: growth | item: `NC(N)=Nc1nc2ccccc2n2c1nc1ccccc12`
### Response 28.5% (inactive)

### Prompt Field request: growth | item: CN(C)CC1C(=O)O[C@H]2[C@H]1CC/C(COC(=O)c1cc3ccccc3[nH]1)=C\CC[C@@]1(C)O[C@@H]21 (stereo partly specified)
### Response -59.7% (active)

### Prompt Field request: growth | item: `Cc1nn(-c2ccccc2)c2nc3c(c(-c4ccc(Cl)cc4)c12)CNC1(CCSCC1)N3`
### Response 101% (inactive)
